SYSTEM_NAME: Gal(b1-4)GlcNAc(b1-3)Gal(b1-4)GlcNAc
PROTOCOL_NOTES: glycan array binding signal (z-score within array); higher = stronger binding
CONDITION_LABEL: glycan notation: IUPAC condensed, linker removed
The entries come from a sample that favours the strongest signals as a whole.
ATTRIBUTE_MEASURED: glycan array binding signal (z-score)

| BINDER | VALUE_REPORTED |
| --- | --- |
| F4 (Escherichia coli), A0A6L9DDF0 (protein) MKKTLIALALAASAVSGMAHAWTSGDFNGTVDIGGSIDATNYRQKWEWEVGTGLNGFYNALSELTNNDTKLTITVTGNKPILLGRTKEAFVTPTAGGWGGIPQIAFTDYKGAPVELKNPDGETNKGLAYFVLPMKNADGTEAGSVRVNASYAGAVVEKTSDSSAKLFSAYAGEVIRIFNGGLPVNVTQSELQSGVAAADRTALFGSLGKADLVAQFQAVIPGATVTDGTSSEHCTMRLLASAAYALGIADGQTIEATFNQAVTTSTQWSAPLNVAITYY | -0.397 |
| Mnn9-2N3 (Aspergillus fumigatus) (protein) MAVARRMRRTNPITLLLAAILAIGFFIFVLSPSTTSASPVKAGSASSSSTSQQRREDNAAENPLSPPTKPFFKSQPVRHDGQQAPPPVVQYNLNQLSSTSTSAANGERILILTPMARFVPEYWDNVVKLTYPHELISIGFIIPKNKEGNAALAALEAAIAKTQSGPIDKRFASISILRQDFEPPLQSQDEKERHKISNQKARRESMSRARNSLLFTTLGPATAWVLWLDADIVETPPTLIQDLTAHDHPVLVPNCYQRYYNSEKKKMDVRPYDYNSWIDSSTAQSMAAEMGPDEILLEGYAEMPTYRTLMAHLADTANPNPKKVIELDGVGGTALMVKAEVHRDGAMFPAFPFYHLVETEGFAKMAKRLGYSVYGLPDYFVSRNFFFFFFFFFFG | -0.099 |
| Epa23 (Candida glabrata) (protein) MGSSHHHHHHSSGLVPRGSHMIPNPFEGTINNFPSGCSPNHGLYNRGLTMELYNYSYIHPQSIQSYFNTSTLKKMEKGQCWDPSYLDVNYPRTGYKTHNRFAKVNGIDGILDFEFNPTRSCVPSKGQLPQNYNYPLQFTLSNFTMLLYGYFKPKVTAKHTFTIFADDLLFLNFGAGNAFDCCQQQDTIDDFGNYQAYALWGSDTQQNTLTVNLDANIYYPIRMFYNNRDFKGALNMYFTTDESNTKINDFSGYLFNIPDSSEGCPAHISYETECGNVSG | 0.139 |
